FYI, the data here is from the supplement of paper PMC9170038.

Below, each entry is listed with its recorded apparent KD of MS2 coat protein.
System: MS2 coat protein
Test: apparent KD of MS2 coat protein; higher = weaker reporter binding
Settings: Eterna round: R107; input ligand: theophylline 2 mM

- QUERY_SEQUENCE: "GCGUCGGUCGGAAGGAGCGACAUGAGGAUCACCCAUGUCUCCCGUUAUGGGAGUUCCUUAGGUCAGGUAGGUCGCCGACGGACGC [#1 Exclusion - Arginine B Attempt #19 (Inspired by Omei)]"
  apparent KD of MS2 coat protein (µM): 0.216
- QUERY_SEQUENCE: "GUAUGAGUUGACUGUGAGACUGGCGUGGAAGGAGCGCACGGAGGUGCAGGUAGGUCGCCACAUGAGGAUCACCCAUGUCAGGCCG [Ceedtila]"
  apparent KD of MS2 coat protein (µM): 0.111
- QUERY_SEQUENCE: "AGCCCGGGAGCGGCCGCCACUGGAGGCUUUGCGCGACAUGAGGAUCACCCAUGUGUGCCCGGCGUUAGGACCGGGCUCGCGUGGU [#1 Same State - Tryptophan B Attempt #21 (HarryS)]"
  apparent KD of MS2 coat protein (µM): 0.0553
- QUERY_SEQUENCE: "AUACAUGAGGAUCACCCAUGUAUAGAUGAAGGAGCGACCAGAGGGUCAGGUAGGUCGCAUCACAUGAGGAUCACCCAUGUAUUUU [DOUBLE!!! :-D #10]"
  apparent KD of MS2 coat protein (µM): 0.0644
- QUERY_SEQUENCE: "AGCCCGUGAGCGGCCGCCACUGGAGGCUUUGCGCGACAUGAGGAUCACCCAUGUGUGCCCGGCGUUAGGACCGGGUUCGCGUGGU [#1 Same State - Tryptophan B Attempt #18 (HarryS)]"
  apparent KD of MS2 coat protein (µM): 0.0454

---

Test system: MS2 coat protein
Assay: apparent KD of MS2 coat protein; designed switch direction (-1 OFF switch, 1 ON switch): -1; higher = weaker reporter binding
Details: Eterna round: R95; input ligand: microRNA oligo, concentration not stated
# if value of apparent KD of MS2 coat protein reaches 100 nM, tag TRUE; if it stays below, tag FALSE

- QUERY_SEQUENCE: "CCAGCUCGUGUUAGGAUAUCCAAGCUGCGGCUGGUGGAGAAGGGACAUGAGGAUCACCCAUGUAAUAAAGAAAA [On] (puzzle: Brourd's mod of Exclusion 4)"
  TARGET_UNDER_TEST: "MS2 coat protein"
  CLASSIFICATION: "FALSE"
- QUERY_SEQUENCE: "GAGUGACAUGAGGAUCACCCAUGUGAGGAUAUCCGAUGGACCAAAUUAACAAUAGAAGGGAGAAGGCACAUAAA [Exclusion 1 V7] (puzzle: Exclusion 1)"
  TARGET_UNDER_TEST: "MS2 coat protein"
  CLASSIFICATION: "TRUE"
- QUERY_SEQUENCE: "AAGCCUCUUGUCAGGAUAUCUGUCGGUCCUCCAAGAGAGAAGGGACAUGAGGAUCACCCAUGUAAGCCCAGGGA [Qubere] (puzzle: Brourd's mod of Exclusion 4)"
  TARGET_UNDER_TEST: "MS2 coat protein"
  CLASSIFICATION: "FALSE"
- QUERY_SEQUENCE: "AAAGAAGAGAGAAAAUAACACAUGAGGAUCACCCAUGUGAGAUGUUGAGGGUGAUACAGGCUUUUUGCUCGUCUUAU (puzzle: Sensor v3, turn-off variant 1)"
  TARGET_UNDER_TEST: "MS2 coat protein"
  CLASSIFICATION: "TRUE"
- QUERY_SEQUENCE: "CCAUCGAGUGUGAGGAUAUGCUGGUCCUUGGAUCAGCAGAAGGCACAUGAGGAUCACCCAUGUGGAGACGGUGG [JL bmx4 3.18] (puzzle: Brourd's mod of Exclusion 4)"
  TARGET_UNDER_TEST: "MS2 coat protein"
  CLASSIFICATION: "FALSE"
- QUERY_SEQUENCE: "GUCGAGUGAGGAUAUGGUGAGUAGUGCCAGAGCGCUGCUCACCAGAAGGCACAUGAGGAUCACCCAUGUAUGUC [Mat - Exclusion 4 - Mod of JL - D10] (puzzle: Exclusion 4)"
  TARGET_UNDER_TEST: "MS2 coat protein"
  CLASSIFICATION: "FALSE"
- QUERY_SEQUENCE: "UGUACGAUGCGUGCUGACAUGCGUCGUGCAGCAGGUGGAACAUGAGGAUCACCCAUGUCCUCAUUUGCUCGUCUUGU [SL-sv3-2.10 JL mod] (puzzle: Sensor v3, turn-off variant 2)"
  TARGET_UNDER_TEST: "MS2 coat protein"
  CLASSIFICATION: "TRUE"
- QUERY_SEQUENCE: "AGUACUAACGCGAAAGUGUUAGUACAAUAAGCUUGUGAAACAUGAGGAUCACCCAUGUCCUCAUAAGCUCGUCUUAU [salish99_TOv2_r3_023] (puzzle: Sensor v3, turn-off variant 2)"
  TARGET_UNDER_TEST: "MS2 coat protein"
  CLASSIFICATION: "TRUE"
- QUERY_SEQUENCE: "CGUGUCUUUCACGUGAGUGGUGGGUGCAACAGGUGGGAAACAUGAGGAUCACCCAUGUCCUCACUUGCUCGUCUUUU [Grok-var2-03] (puzzle: Sensor v3, turn-off variant 2)"
  TARGET_UNDER_TEST: "MS2 coat protein"
  CLASSIFICATION: "TRUE"
- QUERY_SEQUENCE: "CAUGUGUAAGGAUAUGACAAUGGUAUCGAAAGAUACCAUUGUCAGAAGGUACAUGAGGAUCACCCAUGUAGAUC [Ex4-3: 19] (puzzle: Exclusion 4)"
  TARGET_UNDER_TEST: "MS2 coat protein"
  CLASSIFICATION: "FALSE"
- QUERY_SEQUENCE: "AUUGUAGAUGUGAGGAUAUCGUAGAUUUUUUGAAACGAGAAGGCACAUGAGGAUCACCCAUGUAAGAUGUAGGU [JR_BMOE4_Sub053] (puzzle: Brourd's mod of Exclusion 4)"
  TARGET_UNDER_TEST: "MS2 coat protein"
  CLASSIFICATION: "TRUE"
- QUERY_SEQUENCE: "UGAUCAAAUGUCAGGAUAUGCUGUUGGAAACAACAGCAGAAGGGACAUGAGGAUCACCCAUGUCUUGUCGAUUU [Magic-02] (puzzle: Brourd's mod of Exclusion 4)"
  TARGET_UNDER_TEST: "MS2 coat protein"
  CLASSIFICATION: "FALSE"
- QUERY_SEQUENCE: "GUUAGACAUGAGGAUCACCCAUGUGAGGAUAUGAUGCGAAUAAUGAAUGAAGAAAGCAUCAGAAGGCACAUAUG [Mat - Mod of Hyphema D29] (puzzle: Exclusion 1)"
  TARGET_UNDER_TEST: "MS2 coat protein"
  CLASSIFICATION: "TRUE"
- QUERY_SEQUENCE: "AAUAACAGAGGAUAUACUAUUUUAUGUGUUUAUUGUUUUGAACAUGAGGAUCACCCAUGUAGAAGGCUGAAUGA [JMF 67] (puzzle: Exclusion 2)"
  TARGET_UNDER_TEST: "MS2 coat protein"
  CLASSIFICATION: "FALSE"
- QUERY_SEQUENCE: "AGGUGACAUGAGGAUCACCCAUGUAAGGAUAUACGGUUAGUGGAGAGUUGGAAGAGAGGUAGAAGGUACGGAGC [JR_Exclu1_Sub059] (puzzle: Exclusion 1)"
  TARGET_UNDER_TEST: "MS2 coat protein"
  CLASSIFICATION: "TRUE"
- QUERY_SEQUENCE: "GUGUACGGAGGAUAUGUAUGGGCAGGCUGACCUGCAGCUUCACAUGAGGAUCACCCAUGUAGAAGGCUGUGCAC [JL-ex2-2.09 Brourd mod] (puzzle: Exclusion 2)"
  TARGET_UNDER_TEST: "MS2 coat protein"
  CLASSIFICATION: "FALSE"
- QUERY_SEQUENCE: "GGGAAGUGAGGAUAUAUGAGAGAGGCUGGACCGGAUGAGAAGUAGAAGGCACAUGAGGAUCACCCAUGUAGGGA [JR_Exclu4_Sub026] (puzzle: Exclusion 4)"
  TARGET_UNDER_TEST: "MS2 coat protein"
  CLASSIFICATION: "TRUE"
- QUERY_SEQUENCE: "GGAGUACAUGAGGAUCACCCAUGUGAGGAUAUGUAAGGAUAGUAGGUAAGGAAAGAGGACAGAAGGCACGGGAA [JR_Exclu1_Sub070] (puzzle: Exclusion 1)"
  TARGET_UNDER_TEST: "MS2 coat protein"
  CLASSIFICATION: "FALSE"
- QUERY_SEQUENCE: "GAUGAGGUAGGAUAUACGAGAAGAUAGGGUAGAGAGAGAACACAUGAGGAUCACCCAUGUAGAAGGACCAGUAG [Mat - Exclusion 2 - Mod of my Tesla design - D74] (puzzle: Exclusion 2)"
  TARGET_UNDER_TEST: "MS2 coat protein"
  CLASSIFICATION: "FALSE"
- QUERY_SEQUENCE: "AGUAACCGUCACGAAAGUGAUGGUUACGCAAGCAAAUGUACAUGAGGAUCACCCAUGUCCUCAAUUGCUCGUCUUAU [Sensor 3 - 51] (puzzle: Sensor v3, turn-off variant 2)"
  TARGET_UNDER_TEST: "MS2 coat protein"
  CLASSIFICATION: "TRUE"
- QUERY_SEQUENCE: "AGAAAGUCAGGAUAUCGAAGGUAGUGGAGAGGAGUGUGGUACGAGAAGGGACAUGAGGAUCACCCAUGUAGGAG [JR_Exclusion4)Sub007] (puzzle: Exclusion 4)"
  TARGET_UNDER_TEST: "MS2 coat protein"
  CLASSIFICATION: "FALSE"
